test: mRNA encapsulation efficiency by Ribogreen RNA assay
Format: physicochemical
run.conditions: Table 3; LNP ionizable lipid/phospholipid/cholesterol/DMG-PEG2000 about 50/10/38.5/1.5; DOPE, except MC-3 with DSPC; eGFP mRNA
quantity.measured: % encap
# output: numeric value plus its unit

1. CCCCC/C=C\C/C=C\CCCCCCCCC(CCCCCCCC/C=C\C/C=C\CCCCC)OC(=O)CCCN(C)C [MC3, reference compound]: 94%
2. CCCCCCCCCCCCCCCCCCN(CCCCCCCCCCCCCCCCCC)C(=O)OCCSSCCOC(=O)NCCN1CCCCCC1 [S-Ac7-Dsa]: 93%

Could you now look at the following compound, please?
Give the value of % encap reported for the following: CCCCCCCC/C=C\CCCCCCCC(=O)OCC(CNC(=O)OCCOCCOC(=O)NCCN(C)C)OC(=O)CCCCCCC/C=C\CCCCCCCC (stereo not drawn) [E-Adm-Dog]
100%

---

test: mRNA encapsulation efficiency by Ribogreen RNA assay
Type: physicochemical
run.conditions: Table 3; LNP ionizable lipid/phospholipid/cholesterol/DMG-PEG2000 about 50/10/38.5/1.5; DOPE, except MC-3 with DSPC; eGFP mRNA
Measured % encap accompanies every entry in the list below.
Quick reminder: number only, in %, skip the unit.

1) CCCCCCCCCCCCCCCCCCN(CCCCCCCCCCCCCCCCCC)C(=O)OCCSSCCOC(=O)NCCN(C)C: 100
2) CCCCCCCC/C=C\CCCCCCCC(=O)OCC(CNC(=O)OCCSSCCOC(=O)NCCCN1CCCCC1CC)OC(=O)CCCCCCC/C=C\CCCCCCCC (stereo not drawn): 95
3) CCCCCCCC/C=C\CCCCCCCC(=O)OCC(CNC(=O)OCCOC(C)(C)OCCOC(=O)NCCN(C)C)OC(=O)CCCCCCC/C=C\CCCCCCCC (stereo not drawn): 94

Give the value of % encap reported for the following: CCCCCCCC/C=C\CCCCCCCC(=O)OCC(CNC(=O)OCCOC(C)(C)OCCOC(=O)NCCCN1CCCCC1CC)OC(=O)CCCCCCC/C=C\CCCCCCCC (stereo not drawn)
95

Give the value of % encap reported for the following: CCCCCCCC/C=C\CCCCCCCC(=O)OCC(CNC(=O)OCCSSCCOC(=O)NCCN(C)C)OC(=O)CCCCCCC/C=C\CCCCCCCC (stereo not drawn)
98

Give the value of % encap reported for the following: CCCCCCCC/C=C\CCCCCCCC(=O)OCC(CNC(=O)OCCOC(C)(C)OCCOC(=O)NCCN1CCCCCC1)OC(=O)CCCCCCC/C=C\CCCCCCCC (stereo not drawn)
93

---

test: LNP size and polydispersity index by Dynamic Light Scattering (Malvern Zetasizer)
Type: physicochemical
run.conditions: Table 3; LNP ionizable lipid/phospholipid/cholesterol/DMG-PEG2000 about 50/10/38.5/1.5; DOPE, except MC-3 with DSPC; eGFP mRNA
quantity.measured: PDI
// return a plain number; no unit text

Worked cases, answers included:
1) CCCCCCCCCCCCCCCCCCN(CCCCCCCCCCCCCCCCCC)C(=O)OCCSSCCOC(=O)NCCN(C)C: 0.137
2) CCCCCCCC/C=C\CCCCCCCC(=O)OCC(CNC(=O)OCCOC(C)(C)OCCOC(=O)NCCN(C)C)OC(=O)CCCCCCC/C=C\CCCCCCCC (stereo not drawn): 0.157

Could you now look at the following compound, please?
Give the value of PDI reported for the following: CCCCCCCC/C=C\CCCCCCCC(=O)OCC(CNC(=O)OCCOCCOC(=O)NCCCN1CCCCC1CC)OC(=O)CCCCCCC/C=C\CCCCCCCC (stereo not drawn)
0.241

---

test: mRNA encapsulation efficiency by Ribogreen RNA assay
Format: physicochemical
run.conditions: Table 3; LNP ionizable lipid/phospholipid/cholesterol/DMG-PEG2000 about 50/10/38.5/1.5; DOPE, except MC-3 with DSPC; eGFP mRNA
Measured % encap accompanies every entry in the list below.
Quick reminder: number only, in %, skip the unit.

Worked cases, answers included:
1. CCCCCCCC/C=C\CCCCCCCC(=O)OCC(CNC(=O)OCCOCCOC(=O)NCCCN1CCCCC1CC)OC(=O)CCCCCCC/C=C\CCCCCCCC (stereo not drawn): 100
2. CCCCCCCC/C=C\CCCCCCCC(=O)OCC(CNC(=O)OCCOCCOC(=O)NCCN1CCCCCC1)OC(=O)CCCCCCC/C=C\CCCCCCCC (stereo not drawn): 100

Could you now look at the following compound, please?
Give the value of % encap reported for the following: CCCCCCCC/C=C\CCCCCCCC(=O)OCC(CNC(=O)OCCSSCCOC(=O)NCCN1CCCCCC1)OC(=O)CCCCCCC/C=C\CCCCCCCC (stereo not drawn)
90
